For each entry below, report its virus neutralizing test on BHK-21 cells, IC50 value.
target: FMDV O/Mya/98 146S antigen (Foot-and-mouth disease virus serotype …, UniProt G8JKC2, strain); experiment: cell-based or functional assay
Numbers only, in µg/mL.

For orientation, consider the following solved cases.
Q: Give the reported value of virus neutralizing test on BHK-21 cells, IC50 for this record: E18 (antibody, V domains shown) VH: QVQLRESGPSLVTPSQTLSLTCAVSGGSLSTHDVVWVRQAPGRALEWVGGISSRGTTYYNPALKSRLSITQDLSKNQVSLSVGSVTPDDTATYYCAKDLCGGRINGCYNDGYYYSLRVDAWGQGLLVTVSS VL: QAVLAQPSSVSGSLGQRVSITCSGSSNNIGSYGVGWYQQVPGSGLRTIIYGSSNRPSGVPDRFSGSKSGNTATLTISSLQAEDEADYFCAASDYSSNTVVFASGTTLTVL
Result: 0.78

Q: Give the reported value of virus neutralizing test on BHK-21 cells, IC50 for this record: E34 (antibody, V domains shown) VH: QVQLRESGPSLVKPSQTLSLTCTVSGFSLNDYNVGWVRQAPGKALECLGGYKADGSTNYNSALKSRLSITKDSSKKQVSLSLSSVTTEDTATYYCAKCPSRWGCDYCDNYDFWGQGLLVTVSS VL: QAVLTQPSSVSGSLGQRVSITCSGSSSDVGKGYVSWYQLMPGSGPRTLIYGDTSRISGVPDRFSGSRSGNTATLTISSLQAEDEADYFCASADDSSSNAVFGSGTTLTVL
Result: 3.13

Turning now to a further binder:
Q: Give the reported value of virus neutralizing test on BHK-21 cells, IC50 for this record: B82 (antibody, V domains shown) VH: QVQLRESGPSLVKPSQTLSLTCTVSGFSLSNYAVGWVRQAPGKALEYLGGVRLRGRPDYNPALESRLSITKDNSKSQVSLSVSSVTLEDTATYYCAKSSSGLWDGGCCGGSTSCYVDSWGQGLLVTVSS VL: QAVLTQPSSVSGSLGQRVSITCSGSSSNIGTYTVGWYQQVPGSGLRTIIYSNNNRPSGVPDRFSGSKSGNTATLTISSLQAEDEADYFCVTYESSISTALFGRGTTLTVL
Result: 4.17
